STUDY_SYSTEM: T1, human NTB-A (human, UniProt Q96DU3 22-332)
T1 construct: Endogenous NTB-A on antigen-positive Ramos cells (also on MM.1R, WIL2-S and Raji cells and normal human T and B lymphocytes); also called SLAMF6; human NTB-A isoform-1
T1 sequence: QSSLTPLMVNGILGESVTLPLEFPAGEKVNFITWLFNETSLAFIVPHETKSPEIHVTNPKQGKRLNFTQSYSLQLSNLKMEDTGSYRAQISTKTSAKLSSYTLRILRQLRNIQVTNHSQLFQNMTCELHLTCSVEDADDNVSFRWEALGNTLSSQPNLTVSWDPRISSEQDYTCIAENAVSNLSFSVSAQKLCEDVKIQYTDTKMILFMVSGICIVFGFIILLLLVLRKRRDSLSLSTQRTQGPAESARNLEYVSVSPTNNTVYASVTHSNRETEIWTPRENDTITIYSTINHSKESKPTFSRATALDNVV
TEST_PROTOCOL: competition flow cytometry on Ramos cells; competitor 5 nM mouse 20F3-Alexa Fluor 647
One threshold, 20 nM, splits the recorded EC50 values: lower ones are 1.0, equal or higher ones are 0.0.

binder="humanized 20F3 HDLA (antibody, V domains shown, Humanized heavy chain HD paired with humanized light chain LA) VH: QIQLVQSGSELKKPGASVKVSCKASGYTFTNYGMNWVRQAPGQDLKWMGWINTYSGEPRYADDFKGRFVFSLDKSVNTAYLQISSLKAEDTAVYYCARDYGRWYFDVWGQGTTVTVSS VL: EIVLTQSPATLSLSPGERATLSCRASSSVSHMHWYQQKPGQAPRLLIYATSNLASGIPARFSGSGSGTDFTLTISSLEPEDFAVYYCQQWSSTPRTFGGGTKVEIKR" answer_label=1.0
binder="humanized 20F3 HBLA (antibody, V domains shown, Humanized heavy chain HB paired with humanized light chain LA) VH: QIQLVQSGSELKKPGASVKVSCKASGYTFTNYGMNWVRQAPGQGLEWMGWINTYSGEPRYADDFKGRFVFSLDKSVSTAYLQISSLKAEDTAVYYCARDYGRWYFDVWGQGTTVTVSS VL: EIVLTQSPATLSLSPGERATLSCRASSSVSHMHWYQQKPGQAPRLLIYATSNLASGIPARFSGSGSGTDFTLTISSLEPEDFAVYYCQQWSSTPRTFGGGTKVEIKR" answer_label=0.0
binder="humanized 20F3 HELA (antibody, V domains shown, Humanized heavy chain HE paired with humanized light chain LA) VH: QIQLVQSGSELKKPGASVKVSCKASGYTFTNYGMNWVKQAPGQDLKWMGWINTYSGEPRYADDFKGRFAFSLDKSVNTAYLQISSLKAEDTAVYFCARDYGRWYFDVWGQGTTVTVSS VL: EIVLTQSPATLSLSPGERATLSCRASSSVSHMHWYQQKPGQAPRLLIYATSNLASGIPARFSGSGSGTDFTLTISSLEPEDFAVYYCQQWSSTPRTFGGGTKVEIKR" answer_label=0.0
binder="humanized 20F3 HDLB (antibody, V domains shown, Humanized heavy chain HD paired with humanized light chain LB) VH: QIQLVQSGSELKKPGASVKVSCKASGYTFTNYGMNWVRQAPGQDLKWMGWINTYSGEPRYADDFKGRFVFSLDKSVNTAYLQISSLKAEDTAVYYCARDYGRWYFDVWGQGTTVTVSS VL: EIVLTQSPATLSLSPGERATLSCRASSSVSHMHWYQQKPGQAPRPWIYATSNLASGIPARFSGSGSGTDYTLTISSLEPEDFAVYYCQQWSSTPRTFGGGTKVEIKR" answer_label=1.0

Switching to the query record.
## Input Dear reviewer, please state whether humanized 20F3 HCLD (antibody, V domains shown, Humanized heavy chain HC paired with humanized light chain LD) VH: QIQLVQSGSELKKPGASVKVSCKASGYTFTNYGMNWVRQAPGQDLEWMGWINTYSGEPRYADDFKGRFVFSLDKSVNTAYLQISSLKAEDTAVYYCARDYGRWYFDVWGQGTTVTVSS VL: QIVLSQSPATLSLSPGERATMSCRASSSVSHMHWYQQKPGQAPRPWIYATSNLASGVPARFSGSGSGTDYTLTISSLEPEDFAVYYCQQWSSTPRTFGGGTKVEIKR has EC50 strictly beneath 20 nM.
## Output 1.0
